Ki, human adenosine A2A receptors (Homo sapiens, UniProt P29274): measured values

The compound "Nc1nc(-c2ccco2)c2nnn(Cc3cccc(NS(=O)(=O)O)c3)c2n1" , when measured on human adenosine A2A receptors (Homo sapiens, UniProt P29274), yielded Ki of 100 to 1000 nM

The compound "COc1cc(NS(=O)(=O)O)ccc1Cn1nnc2c(-c3ccc(C)o3)nc(N)nc21" , when measured on human adenosine A2A receptors (Homo sapiens, UniProt P29274), yielded Ki of 100 to 1000 nM

The compound "COc1cc(NS(=O)(=O)O)ccc1Cn1nnc2c(-c3ccccc3)nc(N)nc21" , when measured on human adenosine A2A receptors (Homo sapiens, UniProt P29274), yielded Ki of 1000 to 10000 nM

The compound "COc1ccccc1-c1nc(N)nc2c1nnn2Cc1ccc(C)c(NS(=O)(=O)O)c1" , when measured on human adenosine A2A receptors (Homo sapiens, UniProt P29274), yielded Ki of 1000 to 10000 nM

The compound "Cc1ccc(-c2nc(N)nc3c2nnn3Cc2ccc(C)c(NS(=O)(=O)O)c2)o1" , when measured on human adenosine A2A receptors (Homo sapiens, UniProt P29274), yielded Ki of ≤ 100 nM

----------
pKi: −log10 of the molar value.
pKi, human adenosine A1 receptors (Homo sapiens, UniProt P30542): measured values

| Chemical Structure | Measurement Target | pKi |
| --- | --- | --- |
| Cc1ccc(Cn2nnc3c(-c4cccs4)nc(N)nc32)cc1NS(=O)(=O)O | human adenosine A1 receptors (Homo sapiens, UniProt P30542) | 5.00 to 6.00 |
| COc1cc(Cn2nnc3c(-c4ccco4)nc(N)nc32)ccc1NS(=O)(=O)O | human adenosine A1 receptors (Homo sapiens, UniProt P30542) | < 5.00 |
| COc1cc(Cn2nnc3c(-c4ccccc4)nc(N)nc32)ccc1NS(=O)(=O)O | human adenosine A1 receptors (Homo sapiens, UniProt P30542) | 5.00 to 6.00 |
| Cc1ccc(Cn2nnc3c(-c4ccco4)nc(N)nc32)cc1NS(=O)(=O)O | human adenosine A1 receptors (Homo sapiens, UniProt P30542) | 6.00 to 7.00 |

Note: attention shifts to another entry.
Just so you know, measured pKi for "Cc1cc(Cn2nnc3c(-c4ccco4)nc(N)nc32)ccc1NS(=O)(=O)O" came out at 6.00 to 7.00

----------
- Measurement Target: human adenosine A2A receptors (Homo sapiens)
- Construct: host or cells: HEK-293
- Sequence (P29274 whole entry): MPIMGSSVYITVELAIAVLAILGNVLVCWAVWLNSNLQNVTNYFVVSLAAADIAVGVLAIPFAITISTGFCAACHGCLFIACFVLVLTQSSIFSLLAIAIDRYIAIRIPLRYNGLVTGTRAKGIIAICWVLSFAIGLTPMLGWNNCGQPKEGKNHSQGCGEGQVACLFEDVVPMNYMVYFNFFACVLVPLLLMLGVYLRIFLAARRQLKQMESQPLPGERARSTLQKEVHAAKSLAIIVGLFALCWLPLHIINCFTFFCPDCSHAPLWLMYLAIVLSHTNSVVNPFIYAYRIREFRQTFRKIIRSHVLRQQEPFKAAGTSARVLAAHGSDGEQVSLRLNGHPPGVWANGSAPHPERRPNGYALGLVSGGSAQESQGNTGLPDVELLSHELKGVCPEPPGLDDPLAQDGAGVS
- Test Name: Adenosine receptor binding: binding affinities at hA2A receptors ([3H]CGS-21680 displacement)
- Applied Conditions: ratio of measured Ki values at hA2A and hA1
Measured Parameter: A2A/A1 selectivity ratio (Ki A2A/Ki A1)

Previously resolved entries follow.
| Chemical Structure | Measurement Target | Value Measured |
| --- | --- | --- |
| Cc1ccc(-c2nc(N)nc3c2nnn3Cc2ccc(C)c(NS(=O)(=O)O)c2)o1 | human adenosine A2A receptors (Homo sapiens) | H (more than 20) |
| COc1ccccc1-c1nc(N)nc2c1nnn2Cc1ccc(C)c(NS(=O)(=O)O)c1 | human adenosine A2A receptors (Homo sapiens) | E (less than 5) |
| Cc1cc(Cn2nnc3c(-c4ccco4)nc(N)nc32)ccc1NS(=O)(=O)O | human adenosine A2A receptors (Homo sapiens) | H (more than 20) |
| Nc1nc(-c2ccco2)c2nnn(Cc3ccc(NS(=O)(=O)O)cc3)c2n1 | human adenosine A2A receptors (Homo sapiens) | H (more than 20) |
| COc1cc(NS(=O)(=O)O)ccc1Cn1nnc2c(-c3ccco3)nc(N)nc21 | human adenosine A2A receptors (Homo sapiens) | G (10 to 20) |

The molecule "Cc1ccc(-c2nc(N)nc3c2nnn3Cc2ccc(NS(=O)(=O)O)cc2)o1" , when measured on human adenosine A2A receptors (Homo sapiens), yielded A2A/A1 selectivity ratio (Ki A2A/Ki A1) of H (more than 20)

The molecule "COc1cc(NS(=O)(=O)O)ccc1Cn1nnc2c(-c3ccccc3OC)nc(N)nc21" , when measured on human adenosine A2A receptors (Homo sapiens), yielded A2A/A1 selectivity ratio (Ki A2A/Ki A1) of E (less than 5)

The molecule "COc1ccccc1-c1nc(N)nc2c1nnn2Cc1ccc(NS(=O)(=O)O)c(C)c1" , when measured on human adenosine A2A receptors (Homo sapiens), yielded A2A/A1 selectivity ratio (Ki A2A/Ki A1) of E (less than 5)

The molecule "COc1cc(Cn2nnc3c(-c4ccc(C)o4)nc(N)nc32)ccc1NS(=O)(=O)O" , when measured on human adenosine A2A receptors (Homo sapiens), yielded A2A/A1 selectivity ratio (Ki A2A/Ki A1) of H (more than 20)

The molecule "COc1cc(NS(=O)(=O)O)ccc1Cn1nnc2c(-c3ccc(C)o3)nc(N)nc21" , when measured on human adenosine A2A receptors (Homo sapiens), yielded A2A/A1 selectivity ratio (Ki A2A/Ki A1) of H (more than 20)

Reference source for all entries: patent US20100173914A1
